Cited source: PubChem BioAssay (EPA / NIEHS)

Read-out: ATP-citrate lyase (ACLY), ACLY (gene 47)
Assay: LTEA_HepaRG_ACLY: Life Technologies and Expression Analysis (LTEA) Assay for ATP-citrate lyase (ACLY) using HepaRG (AID 2283466)
Details: mRNA level, 48 h; actives raise or lower the signal
Calls of active or inactive are those of the source. How the source made its calls: active means hit-call score of the fitted dose curve at least 0.9, where 1 is the maximum; inactive means score below 0.9.
Outcome field: choose from active, inactive

What classification did "COC(=O)NC(=S)Nc1ccccc1NC(=S)NC(=O)OC" end up with in this test?
inactive

What classification did "COP(=O)(OC)O/C(C)=C/C(=O)N(C)C" end up with in this test?
inactive

What classification did "CN=C=S" end up with in this test?
inactive

What classification did "CSC(=O)c1c(C(F)F)nc(C(F)(F)F)c(C(=O)SC)c1CC(C)C" end up with in this test?
active

What classification did "COC(=O)N(C(=O)N1CO[C@@]2(C(=O)OC)Cc3cc(Cl)ccc3C2=N1)c1ccc(OC(F)(F)F)cc1" end up with in this test?
inactive

What classification did "Cc1c(COC(=O)[C@@H]2[C@H](/C=C(\Cl)C(F)(F)F)C2(C)C)cccc1-c1ccccc1" end up with in this test?
inactive

What classification did "Cc1ccc(N=CN(C)C=Nc2ccc(C)cc2C)c(C)c1" end up with in this test?
inactive

What classification did "CCCCOCN(C(=O)CCl)c1c(CC)cccc1CC" end up with in this test?
inactive

What classification did "CO/N=C(/C1=NOCCO1)c1ccccc1Oc1ncnc(Oc2ccccc2Cl)c1F" end up with in this test?
active

What classification did CC1(C)C(C(=O)OC(C#N)c2cccc(Oc3ccccc3)c2)C1(C)C (stereo unspecified) end up with in this test?
inactive

What classification did CCCC(=NOCC)C1=C(O)CC(CC(C)SCC)CC1=O (stereo unspecified) end up with in this test?
inactive
